EXPERIMENTAL PROTOCOL: Dexamethasone in eye tissues and fluids after one 25 μL depot instillation
CONDITION SUMMARY: female, New Zealand White, rabbit, iris/ciliary body, topical, 25 μL, Dexamethasone, Iris/Ciliary Body Tissue, Hr 8; per eye; one 25 μL instillation
PARAMETER MEASURED: concentration at 8 h (ng/g)
Only the number, expressed in ng/g, is required.

**Query** Requested field: concentration at 8 h. Item: C[C@@H]1C[C@H]2[C@@H]3CCC4=CC(=O)C=C[C@]4(C)[C@@]3(F)[C@@H](O)C[C@]2(C)[C@@]1(O)C(=O)CO
**Result** 151

----------
EXPERIMENTAL PROTOCOL: Dexamethasone in eye tissues and fluids after one 25 μL depot instillation
CONDITION SUMMARY: female, New Zealand White, rabbit, conjunctiva, topical, 25 μL, Dexamethasone, Conjunctiva Average (±SD), Day 21; one 25 μL instillation
PARAMETER MEASURED: concentration at 21 day (ng/g)
Only the number, expressed in ng/g, is required.

**Query** Requested field: concentration at 21 day. Item: C[C@@H]1C[C@H]2[C@@H]3CCC4=CC(=O)C=C[C@]4(C)[C@@]3(F)[C@@H](O)C[C@]2(C)[C@@]1(O)C(=O)CO [Dexamethasone, dexamethasone]
**Result** 28.2

----------
EXPERIMENTAL PROTOCOL: Dexamethasone in eye tissues and fluids after one 25 μL depot instillation
CONDITION SUMMARY: female, New Zealand White, rabbit, aqueous humor, topical, 25 μL, Dexamethasone, Aqueous Humor Average (±SD), Hr 8; one 25 μL instillation of 10% dexamethasone depot
PARAMETER MEASURED: concentration at 8 h (ng/mL)
Only the number, expressed in ng/mL, is required.

**Query** Requested field: concentration at 8 h. Item: C[C@@H]1C[C@H]2[C@@H]3CCC4=CC(=O)C=C[C@]4(C)[C@@]3(F)[C@@H](O)C[C@]2(C)[C@@]1(O)C(=O)CO
**Result** 44.8

----------
EXPERIMENTAL PROTOCOL: Dexamethasone in eye tissues and fluids after one 25 μL depot instillation
CONDITION SUMMARY: female, New Zealand White, rabbit, iris/ciliary body, topical, 25 μL, Dexamethasone, Iris/Ciliary Body Average (±SD), Day 21; one 25 μL instillation
PARAMETER MEASURED: concentration at 21 day

**Query** Requested field: concentration at 21 day. Item: C[C@@H]1C[C@H]2[C@@H]3CCC4=CC(=O)C=C[C@]4(C)[C@@]3(F)[C@@H](O)C[C@]2(C)[C@@]1(O)C(=O)CO
**Result** 3.88 ng/g

----------
EXPERIMENTAL PROTOCOL: Dexamethasone in eye tissues and fluids after one 25 μL depot instillation
CONDITION SUMMARY: female, New Zealand White, rabbit, iris/ciliary body, topical, 25 μL, Dexamethasone, Iris/Ciliary Body Average (±SD), Day 3; one 25 μL instillation
PARAMETER MEASURED: concentration at 3 day (ng/g)
Only the number, expressed in ng/g, is required.

**Query** Requested field: concentration at 3 day. Item: C[C@@H]1C[C@H]2[C@@H]3CCC4=CC(=O)C=C[C@]4(C)[C@@]3(F)[C@@H](O)C[C@]2(C)[C@@]1(O)C(=O)CO [Dexamethasone, dexamethasone]
**Result** 9.72
